Target: rat TRPV4 (Rattus norvegicus)
Construct: expressed in transfected cells; host or cells: HEK-293
Assay: TRPV4-mediated elevation of intracellular Ca2+ (Fluo-4) in transfected HEK-293 cells
Assay type: cell-based
Conditions: antagonist/desensitizing; compound added 5 min before agonist GSK1016790A 10 nM; read-out: IC50 TRPV4
Method: Assays of rat TRPA1, TRPV2, TRPV3, TRPV4, and TRPM8 or human TRPV1 mediated elevation of intracellular Ca ^2+ in transfected HEK-293 cells were performed with a continuous monitoring of [Ca ^2+]i during the experiments. […] Cell fluorescence before and after the addition of various concentrations of test compounds was measured, normalizing the effects against the response to ionomycin (IM, 4 μM). […]
experimental.endpoint: IC50

Example entries and their recorded answers appear below.
>>> val("CCCCCCCc1cc(O)c2c(c1)OC(C)(CCC=C(C)C)C=C2 (stereo not shown) [8c, Depentyl-5-n-heptylcannabichromene]")
"> 100 µM"
>>> val("CCCCC(C)(C)c1cc(O)c2c(c1)OC(C)(CCC=C(C)C)C=C2 (stereo not shown) [8d]")
"> 100 µM"
>>> val("C=C(C)[C@@H]1CCC(C)=C[C@H]1c1c(O)cc(C(C)(C)CCCCCC)cc1O [1b, Depentyl-α,α-dimethylheptyl-cannabidiol]")
"> 100 µM"

# get_value(readout='IC50', item= CCCCCCC(C)(C)c1cc(O)c(C/C=C(\C)CCC=C(C)C)c(O)c1 [7b, Depentyl-α,α-dimethylheptyl-cannabigerol] )
35.4 µM

----------
Hi there, I'd appreciate the recorded pIC50 for every entry that follows.
target: rat TRPV2 (Rattus norvegicus); construct: expressed in transfected cells; host or cells: HEK-293; test: TRPV2-mediated elevation of intracellular Ca2+ (Fluo-4) in transfected HEK-293 cells; type: cell-based; settings: IC50 TRPV2, antagonist/desensitizing; compound added 5 min before agonist CBD 2 μM
Sequence (Q9WUD2 whole entry): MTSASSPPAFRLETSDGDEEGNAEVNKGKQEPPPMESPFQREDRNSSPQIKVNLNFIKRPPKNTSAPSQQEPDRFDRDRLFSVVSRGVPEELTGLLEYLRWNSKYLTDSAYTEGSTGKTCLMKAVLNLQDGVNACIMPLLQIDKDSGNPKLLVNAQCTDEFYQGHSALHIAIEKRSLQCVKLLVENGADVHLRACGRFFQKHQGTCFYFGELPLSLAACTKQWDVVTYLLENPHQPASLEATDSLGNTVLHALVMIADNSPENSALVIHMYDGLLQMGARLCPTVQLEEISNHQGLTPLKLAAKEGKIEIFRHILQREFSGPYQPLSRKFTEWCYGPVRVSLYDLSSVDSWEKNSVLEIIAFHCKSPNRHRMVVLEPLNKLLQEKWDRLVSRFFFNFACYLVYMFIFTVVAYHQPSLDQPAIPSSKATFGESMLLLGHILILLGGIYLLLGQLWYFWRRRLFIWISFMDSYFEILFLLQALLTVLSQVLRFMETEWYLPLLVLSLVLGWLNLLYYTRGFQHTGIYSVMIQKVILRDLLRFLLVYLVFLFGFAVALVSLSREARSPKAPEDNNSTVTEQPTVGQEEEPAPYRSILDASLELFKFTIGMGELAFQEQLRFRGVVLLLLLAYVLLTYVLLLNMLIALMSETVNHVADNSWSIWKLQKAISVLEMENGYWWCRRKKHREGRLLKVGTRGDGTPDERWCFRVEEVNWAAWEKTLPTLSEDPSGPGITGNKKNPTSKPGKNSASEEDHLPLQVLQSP
Numbers only, as −log10 of the molar value.

>>> val("CCCCCCC(C)(C)c1cc(O)c2c(c1)OC(C)(CCC=C(C)C)C=C2 (centres unmarked)")
4.65

Any idea what pIC50 was measured for CCCCCCC(C)(C)c1cc(O)c(C/C=C(\C)CCC=C(C)C)c(O)c1 ?
4.40

----------
biological target: rat TRPV4 (Rattus norvegicus); construct: expressed in transfected cells; host or cells: HEK-293; assay: TRPV4-mediated elevation of intracellular Ca2+ (Fluo-4) in transfected HEK-293 cells; format: cell-based; details: half-maximal increase in [Ca2+]i; HEK-293; read-out: TRPV4 Potency EC50
experimental.endpoint: EC50 (µM)
Numbers only, in µM.

What value of EC50 on rat TRPV4 (Rattus norvegicus) does CCCCCCC(C)(C)c1cc(O)c(C/C=C(\C)CCC=C(C)C)c(O)c1 have?
39

----------
target: rat TRPV4 (Rattus norvegicus, UniProt Q9ERZ8); construct: expressed in transfected cells; host or cells: HEK-293; experiment: TRPV4-mediated elevation of intracellular Ca2+ (Fluo-4) in transfected HEK-293 cells; assay type: cell-based; details: percentage of the response to ionomycin 4 μM; HEK-293
Sequence (Q9ERZ8 whole entry): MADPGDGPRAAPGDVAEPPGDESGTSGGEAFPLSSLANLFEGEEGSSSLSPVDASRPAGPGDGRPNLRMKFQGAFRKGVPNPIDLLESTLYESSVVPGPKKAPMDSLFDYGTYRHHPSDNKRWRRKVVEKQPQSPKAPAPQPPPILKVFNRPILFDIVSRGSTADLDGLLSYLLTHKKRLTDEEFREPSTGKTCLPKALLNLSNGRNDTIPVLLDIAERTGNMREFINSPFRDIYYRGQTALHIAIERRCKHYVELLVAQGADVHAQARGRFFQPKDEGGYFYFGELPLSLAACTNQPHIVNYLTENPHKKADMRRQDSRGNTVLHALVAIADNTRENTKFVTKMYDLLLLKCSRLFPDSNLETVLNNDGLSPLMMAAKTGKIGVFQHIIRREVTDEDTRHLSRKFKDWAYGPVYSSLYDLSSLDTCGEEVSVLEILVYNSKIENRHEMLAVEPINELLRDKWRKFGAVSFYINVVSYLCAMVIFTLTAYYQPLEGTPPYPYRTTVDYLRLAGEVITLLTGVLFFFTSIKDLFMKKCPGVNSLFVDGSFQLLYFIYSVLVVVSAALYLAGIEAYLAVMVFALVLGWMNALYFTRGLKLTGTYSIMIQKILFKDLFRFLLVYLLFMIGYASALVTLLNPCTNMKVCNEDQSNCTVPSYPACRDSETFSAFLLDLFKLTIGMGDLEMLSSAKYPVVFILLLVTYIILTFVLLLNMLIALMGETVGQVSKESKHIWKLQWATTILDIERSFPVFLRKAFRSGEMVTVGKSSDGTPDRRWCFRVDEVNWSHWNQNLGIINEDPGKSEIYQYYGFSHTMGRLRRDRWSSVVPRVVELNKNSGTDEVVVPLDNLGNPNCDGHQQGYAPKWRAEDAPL
Exercise: state measured TRPV4 Efficacy (% IM 4 μM) for each of the compounds provided.
Numbers only, in %.

>>> val("CCCCCCC(C)(C)c1cc(O)c(C/C=C(\\C)CCC=C(C)C)c(O)c1")
34.4

// moving on: another record for TRPV4 Efficacy (% IM 4 μM)
# query: TRPV4 Efficacy (% IM 4 μM) of entry C=C(C)[C@@H]1CCC(C)=C[C@H]1c1c(O)cc(C(C)(C)CCCCCC)cc1O
34.0

----------
biological target: rat TRPV3 (Rattus norvegicus); construct: expressed in transfected cells; host or cells: HEK-293; test: TRPV3-mediated elevation of intracellular Ca2+ (Fluo-4) in transfected HEK-293 cells; assay type: cell-based; settings: percentage of the response to ionomycin 4 μM; cells sensitized with 2-aminoethoxydiphenyl borate 100 μM
experimental.endpoint: TRPV3 Efficacy (% IM 4 μM) (%)
Give bare numbers, in %.

Worked examples follow.
>>> val("C=C(C)[C@@H]1CCC(C)=C[C@H]1c1c(O)cc(C(C)(C)CCCCCC)cc1O")
15.8
>>> val("CCCCCCC(C)(C)c1cc(O)c2c(c1)OC(C)(CCC=C(C)C)C=C2 (centres unmarked)")
41.6

Let us move to another entry and its TRPV3 Efficacy (% IM 4 μM).
Please state recorded TRPV3 Efficacy (% IM 4 μM) (tested on rat TRPV3 (Rattus norvegicus)) of CCCCCCC(C)(C)c1cc(O)c(C/C=C(\C)CCC=C(C)C)c(O)c1
64.6

----------
Target: human TRPV1 (Homo sapiens, UniProt Q8NER1)
Construct: expressed in transfected cells; host or cells: HEK-293
Sequence (Q8NER1 whole entry): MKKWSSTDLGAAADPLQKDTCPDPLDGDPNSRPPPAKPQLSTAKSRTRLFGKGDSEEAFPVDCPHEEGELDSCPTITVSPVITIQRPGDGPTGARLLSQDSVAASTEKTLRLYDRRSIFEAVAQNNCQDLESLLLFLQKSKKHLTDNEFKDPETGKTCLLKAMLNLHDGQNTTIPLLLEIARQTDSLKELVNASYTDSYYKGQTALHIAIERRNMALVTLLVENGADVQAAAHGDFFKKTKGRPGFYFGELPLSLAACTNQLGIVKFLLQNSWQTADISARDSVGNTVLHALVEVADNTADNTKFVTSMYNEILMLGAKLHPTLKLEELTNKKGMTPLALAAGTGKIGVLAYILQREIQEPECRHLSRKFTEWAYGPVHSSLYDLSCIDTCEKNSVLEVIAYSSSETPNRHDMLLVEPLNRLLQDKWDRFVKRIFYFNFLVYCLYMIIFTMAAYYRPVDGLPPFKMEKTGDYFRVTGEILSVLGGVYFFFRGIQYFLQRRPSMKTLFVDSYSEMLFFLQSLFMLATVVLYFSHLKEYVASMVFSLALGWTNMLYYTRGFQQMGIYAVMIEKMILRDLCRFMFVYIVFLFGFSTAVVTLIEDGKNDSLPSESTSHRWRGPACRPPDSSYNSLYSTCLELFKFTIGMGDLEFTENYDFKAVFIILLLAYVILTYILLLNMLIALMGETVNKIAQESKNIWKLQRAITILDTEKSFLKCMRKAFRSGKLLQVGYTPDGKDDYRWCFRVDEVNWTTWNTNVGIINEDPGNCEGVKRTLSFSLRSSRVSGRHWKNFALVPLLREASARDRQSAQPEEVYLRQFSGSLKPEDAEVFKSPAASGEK
Assay: TRPV1-mediated elevation of intracellular Ca2+ (Fluo-4) in transfected HEK-293 cells
Format: cell-based
Details: percentage of the response to ionomycin 4 μM; HEK-293
Protocol: Assays of rat TRPA1, TRPV2, TRPV3, TRPV4, and TRPM8 or human TRPV1 mediated elevation of intracellular Ca ^2+ in transfected HEK-293 cells were performed with a continuous monitoring of [Ca ^2+]i during the experiments. […] Cell fluorescence before and after the addition of various concentrations of test compounds was measured, normalizing the effects against the response to ionomycin (IM, 4 μM). […]
experimental.endpoint: TRPV1 Efficacy (% IM 4 μM)

Past entries and their recorded results:
>>> val("CCCCCCCc1cc(O)c2c(c1)OC(C)(CCC=C(C)C)C=C2 (stereo not shown)")
"<10%"
>>> val("CCCCCCC(C)(C)c1cc(O)c2c(c1)OC(C)(CCC=C(C)C)C=C2 (stereo not shown)")
"18.9 ± 0.2%"
>>> val("CCCCCCC(C)(C)c1cc(O)c2c(c1)OC(C)(C)[C@@H]1CC=C(C)C[C@@H]21")
"15.3%"
>>> val("CCCCCCC(C)(C)c1cc(O)c(C/C=C(\\C)CCC=C(C)C)c(O)c1")
"< 10%"
>>> val("CCCCC(C)(C)c1cc(O)c2c(c1)OC(C)(CCC=C(C)C)C=C2 (stereo not shown)")
"<10%"

# batch: return TRPV1 Efficacy (% IM 4 μM) for each of the 2 molecules below
1. C=C(C)[C@@H]1CCC(C)=C[C@H]1c1c(O)cc(C(C)(C)CCCCCC)cc1O
2. CCCCCCC(C)(C)c1cc(O)c2c(c1)OC(C)(C)c1ccc(C)cc1-2

["< 10%", "<10 <10%"]

----------
molecular target: rat TRPV3 (Rattus norvegicus, UniProt Q4QYD9); construct: expressed in transfected cells; host or cells: HEK-293; experiment: TRPV3-mediated elevation of intracellular Ca2+ (Fluo-4) in transfected HEK-293 cells; type: cell-based; details: antagonist/desensitizing; compound added 5 min before agonist thymol 100 μM
Sequence (Q4QYD9 1-791): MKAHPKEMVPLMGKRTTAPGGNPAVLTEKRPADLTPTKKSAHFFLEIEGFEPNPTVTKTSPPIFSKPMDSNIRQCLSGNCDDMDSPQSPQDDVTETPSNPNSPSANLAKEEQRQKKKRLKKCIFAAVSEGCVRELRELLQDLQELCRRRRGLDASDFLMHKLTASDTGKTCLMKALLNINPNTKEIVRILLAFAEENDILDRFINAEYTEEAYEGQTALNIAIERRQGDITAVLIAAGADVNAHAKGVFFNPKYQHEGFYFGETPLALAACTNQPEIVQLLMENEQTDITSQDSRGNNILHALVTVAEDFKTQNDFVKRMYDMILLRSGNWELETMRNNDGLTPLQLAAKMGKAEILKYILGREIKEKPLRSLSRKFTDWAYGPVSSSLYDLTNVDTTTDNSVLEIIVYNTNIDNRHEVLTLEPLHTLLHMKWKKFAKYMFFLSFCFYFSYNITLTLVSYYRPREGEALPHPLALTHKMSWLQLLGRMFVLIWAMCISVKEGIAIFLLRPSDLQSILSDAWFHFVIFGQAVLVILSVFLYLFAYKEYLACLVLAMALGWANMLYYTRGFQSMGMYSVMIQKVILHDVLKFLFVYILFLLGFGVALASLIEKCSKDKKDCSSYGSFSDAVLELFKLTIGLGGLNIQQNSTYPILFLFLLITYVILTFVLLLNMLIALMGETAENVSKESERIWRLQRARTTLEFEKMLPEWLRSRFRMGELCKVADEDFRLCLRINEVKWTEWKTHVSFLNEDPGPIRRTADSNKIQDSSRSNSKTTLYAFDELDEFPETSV
Please provide measured IC50 for the entries that follow.
Give bare numbers, in µM.

>>> val("C=C(C)[C@@H]1CCC(C)=C[C@H]1c1c(O)cc(C(C)(C)CCCCCC)cc1O")
32.6

Here is the next item to consider.
Dear colleague, I am looking for the recorded IC50 of the following compound: CCCCCCC(C)(C)c1cc(O)c(C/C=C(\C)CCC=C(C)C)c(O)c1
35.4

----------
Field: EC50. Provide a value for each of the compounds that follow.
molecular target: rat TRPA1 (Rattus norvegicus); construct: expressed in transfected cells; host or cells: HEK-293; experiment: TRPA1-mediated elevation of intracellular Ca2+ (Fluo-4) in transfected HEK-293 cells; assay type: cell-based; details: half-maximal increase in [Ca2+]i; HEK-293; read-out: TRPA1 Potency EC50
Sequence (Q6RI86 whole entry): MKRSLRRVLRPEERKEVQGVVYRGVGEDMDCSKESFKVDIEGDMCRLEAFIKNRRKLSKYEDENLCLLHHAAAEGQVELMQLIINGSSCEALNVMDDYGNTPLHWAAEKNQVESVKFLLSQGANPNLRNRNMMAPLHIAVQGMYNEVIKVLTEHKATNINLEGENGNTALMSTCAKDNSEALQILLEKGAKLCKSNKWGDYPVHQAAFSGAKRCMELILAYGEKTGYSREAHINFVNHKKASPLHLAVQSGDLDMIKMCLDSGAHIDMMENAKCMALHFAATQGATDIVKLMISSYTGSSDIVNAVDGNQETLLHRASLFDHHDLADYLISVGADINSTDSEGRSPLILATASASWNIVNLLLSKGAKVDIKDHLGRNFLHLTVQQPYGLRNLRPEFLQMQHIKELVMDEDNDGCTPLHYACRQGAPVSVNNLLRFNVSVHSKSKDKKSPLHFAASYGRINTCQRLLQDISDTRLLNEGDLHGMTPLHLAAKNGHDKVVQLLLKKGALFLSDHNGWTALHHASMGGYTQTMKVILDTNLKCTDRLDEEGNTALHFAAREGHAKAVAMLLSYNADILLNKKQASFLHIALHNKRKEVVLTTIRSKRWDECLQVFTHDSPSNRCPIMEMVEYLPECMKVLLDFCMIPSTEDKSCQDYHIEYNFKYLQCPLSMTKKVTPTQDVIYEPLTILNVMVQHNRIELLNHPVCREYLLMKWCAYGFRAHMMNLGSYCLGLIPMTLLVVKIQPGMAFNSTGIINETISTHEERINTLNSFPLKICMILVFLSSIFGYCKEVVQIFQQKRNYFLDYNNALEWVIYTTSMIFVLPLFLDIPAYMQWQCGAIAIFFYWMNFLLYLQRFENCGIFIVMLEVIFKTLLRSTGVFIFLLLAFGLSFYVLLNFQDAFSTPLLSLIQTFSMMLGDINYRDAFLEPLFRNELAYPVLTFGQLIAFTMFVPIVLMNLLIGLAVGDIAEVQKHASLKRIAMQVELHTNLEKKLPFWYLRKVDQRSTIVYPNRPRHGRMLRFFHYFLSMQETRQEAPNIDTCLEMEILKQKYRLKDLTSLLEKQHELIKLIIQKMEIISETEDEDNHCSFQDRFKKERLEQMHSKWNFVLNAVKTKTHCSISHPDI
One number for each entry, in nM.

Report EC50 for each item below.
1. CCCCCCCc1cc(O)c2c(c1)OC(C)(CCC=C(C)C)C=C2 (stereo not shown)
2. C=C(C)[C@@H]1CCC(C)=C[C@H]1c1c(O)cc(C(C)(C)CCCCCC)cc1O

1: 1200; 2: 400

# batch size: 2; output EC50 per entry
1. CCCCC(C)(C)c1cc(O)c2c(c1)OC(C)(CCC=C(C)C)C=C2 (stereo not shown)
2. CCCCCCC(C)(C)c1cc(O)c(C/C=C(\C)CCC=C(C)C)c(O)c1

[150, 9100]

----------
target: UniProt:Q9WUD2; test: TRPV2-mediated elevation of intracellular Ca2+ (Fluo-4) in transfected HEK-293 cells
experimental.endpoint: EC50

>>> val("CCCCCCC(C)(C)c1cc(O)c(C/C=C(\\C)CCC=C(C)C)c(O)c1")
"9.8 µM"
>>> val("CCCCCCC(C)(C)c1cc(O)c2c(c1)OC(C)(CCC=C(C)C)C=C2 (stereo not drawn)")
"> 50 µM"

So what does the record say about EC50 for CCCCCCC(C)(C)c1cc(O)c2c(c1)OC(C)(C)[C@@H]1CC=C(C)C[C@@H]21 ?
0.25 µM

----------
Please provide measured TRPV4 Efficacy (% IM 4 μM) for the entries that follow.
target: rat TRPV4 (Rattus norvegicus); construct: expressed in transfected cells; host or cells: HEK-293; assay: TRPV4-mediated elevation of intracellular Ca2+ (Fluo-4) in transfected HEK-293 cells; format: cell-based; details: percentage of the response to ionomycin 4 μM; HEK-293

>>> val("CCCCCCC(C)(C)c1cc(O)c2c(c1)OC(C)(CCC=C(C)C)C=C2 (stereo not drawn) [8b]")
"< 10%"

Dear colleague, could you please provide TRPV4 Efficacy (% IM 4 μM) for the molecules listed below?
1. CCCCCCCc1cc(O)c2c(c1)OC(C)(CCC=C(C)C)C=C2 (stereo not drawn) [8c, Depentyl-5-n-heptylcannabichromene]
2. CCCCC(C)(C)c1cc(O)c2c(c1)OC(C)(CCC=C(C)C)C=C2 (stereo not drawn) [8d]

<10%
<10%
